# Tested on: E. coli TEM 1
# protocol summary: agar diffusion test, inhibition zone diameter (Hemmhof), inhibitor alone and combined with Cefaclor
# Format: cell-based, E. coli W 311O3 R6K (TEM 1)
# applied conditions: Escherichia coli, TEM1, read-out: Hemmhofdurchmesser mm (E. coli TEM 1) I (10 mcg)
quantity: zone of inhibition at 10 µg/disc (mm)
One number for each entry, in mm.

compound	zone of inhibition at 10 µg/disc (mm)
C[C@H](O)[C@H]1C(=O)N2C(C(=O)O)=C(C(C)(C)C)O[C@H]12 (racemic) [Ib]	0
C[C@@H](O)[C@H]1C(=O)N2C(C(=O)O)=C(C(C)(C)C)O[C@H]12	23
C[C@H](O)[C@H]1C(=O)N2C(C(=O)O)=C(C(C)(C)C)O[C@@H]12 (racemic)	9
CC(C)(C)C1=C(C(=O)O)N2C(=O)[C@H](CO)[C@H]2O1 (racemic)	17

Query string: Would you kindly share the measured zone of inhibition at 10 µg/disc for C[C@H](O)[C@H]1C(=O)N2C(C(=O)O)=C(C(C)(C)C)O[C@H]12 [Ie] ?
Result string: 0
